Test system: T-cell receptor (TCR)
assay: small molecules blocking TCR binding to CD3 – biochemical, fluorescence, TAMRA-labeled TCR probe, primary screen (AID 651800);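 further: recombinant mutant TCR 2C K166C tagged with TAMRA read by polarization; 0% = receptor in buffer alone and 100% = receptor with positive control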
measurementSetup: at 9.4 µM, active compounds read high
The campaign covered roughly 360,000 compounds. About 1,300 (0.36%) were called active. The full list was thinned out, with actives kept by preference.
measurementKind: inhibition (%)
State the answer as a number, implicitly in %.

Some solved entries appear below for comparison.
CC1=CC(C)(C)NC(=S)N1NC(=O)c1ccccc1Cl ... -4.79
O=C(C(=O)N1CCC(CNC(=O)c2cccnc2Cl)CC1)c1cccs1 ... 0.67

Query compound follows.
The measured inhibition associated with `CC(=O)N1C[C@@H](CO)[C@@H](N(C)C(=O)C(C)(C)C)C[C@H]1c1ccccc1Br` reads -0.47

Every entry's value here was drawn from PubChem BioAssay AID651800.
